Entries and their remaining at 2 h, 2 μM
test: In vitro plasma stability, beagle dog plasma; details: beagle, dog, plasma
Returns: string containing the number followed by the unit.

For this molecule ( C[C@@H](O)[C@H]1C(=O)N2C(C(=O)O)=C(S[C@@H]3CN[C@H](C(=O)N(C)C)C3)[C@H](C)[C@H]12 [Meropenem, reference compound] ), measured remaining at 2 h, 2 μM is 75.2%

The reported remaining at 2 h, 2 μM of the molecule C[C@@H](O)[C@H]1C(=O)N2C(C(=O)O)=C(S[C@@H]3CN[C@H](C(=O)Nc4cccc(C(=O)O)c4)C3)[C@H](C)[C@H]12 [Ertapenem, reference compound] was 70.7%

###

experiment: In vitro plasma stability, SD rat plasma; details: 2 μM, 37 °C, time point 120 min
reported_property: Plasma stability % Remaining, Rat (%)
Answer in %, number only, no unit symbol.

// Plasma stability % Remaining, Rat lookup, compound = NCCSC=CC1=C(C(=O)O)N2C(=O)C(NC(=O)CSc3ccc(Cl)c(Cl)c3)C2SC1 (stereo not shown) [TBBL-0000306] , result: 23.0

Looking up CCCc1nnc(SCC2=C(C(=O)O)N3C(=O)[C@@H](NC(=O)Cc4ccc(C(=N)N)cc4)[C@H]3SC2)s1 [TBBL-0000314] , I found its Plasma stability % Remaining, Rat recorded as 73.3

Kindly note the recorded Plasma stability % Remaining, Rat for CCc1nnc(SCC2=C(C(=O)O)N3C(=O)[C@@H](NC(=O)Cc4ccc(C5=NCCCN5)cc4)[C@H]3SC2)s1 [TBBL-0000317] , which is 2.4

Documented Plasma stability % Remaining, Rat of NCc1ccccc1CC(=O)N[C@@H]1C(=O)N2C(C(=O)O)=C(CSc3nnnn3CCO)CS[C@H]12 [TBBL-0000656] : 85.1

###

tested on: plasma proteins; test: Plasma protein binding (equilibrium dialysis), cynomolgus monkey; conditions: 2 μM
reported_property: % bound to plasma, Cynomolgus Monkey (%)
Write down the numeric answer in % and omit the unit.

> print(dat)
                               entry.smiles  value
1  NCc1ccccc1CC(=O)N[C@@H]1C(=O)N2C(C(=O)O)=C(CSc3nnnn3CCO)CS[C@H]12   22.0
2  CCCc1nnc(SCC2=C(C(=O)O)N3C(=O)[C@@H](NC(=O)Cc4ccc(C(=N)N)cc4)[C@H]3SC2)s1   60.1
3  CCc1nnc(SCC2=C(C(=O)O)N3C(=O)[C@@H](NC(=O)Cc4ccc(C5=NCCN5)cc4)[C@H]3SC2)s1   56.2

Here's the next entry for you.
% bound to plasma, Cynomolgus Monkey measured on CC(=O)OCC1=C(C(=O)O)N2C(=O)[C@@H](NC(=O)CSc3ccncc3)[C@H]2SC1 = 0.0

###

experiment: in vitro; settings: monkey, plasma
reported_property: remaining at 2 h, 2 μM (%)
Respond with the bare value in %.

Observe how each entry below is paired with its result.
> print(dat)
                                   compound  unit.string  value
1  O=C(CCCC(NC(=O)c1ccc(Cl)cc1Cl)C(=O)O)N[C@@H]1C(=O)N2C(C(=O)O)=C(CSc3cccc[n+]3[O-])CS[C@H]12 (some centres unmarked)            %    119
2  CN(C)C(=S)SCC1=C(C(=O)O)N2C(=O)[C@@H](NC(=O)Cc3cccs3)[C@H]2SC1            %    133
3  O=C(Cc1ccc(C2=NCCN2)cc1)N[C@@H]1C(=O)N2C(C(=O)O)=C(CSc3nncs3)CS[C@H]12            %    114
4  O=C(O)C1=C(CSc2cccc[n+]2[O-])CS[C@@H]2[C@H](NC(=O)/C(=N\Oc3ccccc3)c3ccco3)C(=O)N12            %    108

Next, consider the following compound.
Data point: O=C(Cc1cccs1)N[C@@H]1C(=O)N2C(C(=O)O)=C(CSc3cccc[n+]3[O-])CS[C@H]12 ; remaining at 2 h, 2 μM = 117

###

assay: in vivo; details: female, CD-1, mouse, iv, 5 mg/kg
Classify: Fulfilled when clearance is strictly less than 4 mL/min/kg; Not fulfilled when clearance is not.

The examples below pair each entry with its known result.
> print(dat)
                                   compound  discrete.label
1  CN(C)C(=S)SCC1=C(C(=O)O)N2C(=O)[C@@H](NC(=O)Cc3cccs3)[C@H]2SC1   Not fulfilled
2  O=C(O)C1=C(CSc2cccc[n+]2[O-])CS[C@@H]2[C@H](NC(=O)/C(=N\Oc3ccccc3)c3ccco3)C(=O)N12   Not fulfilled
3  O=C(CCCC(NC(=O)c1ccc(Cl)cc1Cl)C(=O)O)N[C@@H]1C(=O)N2C(C(=O)O)=C(CSc3cccc[n+]3[O-])CS[C@H]12 (some centres unmarked)   Not fulfilled
4  O=C(Cc1ccc(C2=NCCN2)cc1)N[C@@H]1C(=O)N2C(C(=O)O)=C(CSc3nncs3)CS[C@H]12       Fulfilled

Kindly review the next compound as well.
Determine if O=C(Cc1cccs1)N[C@@H]1C(=O)N2C(C(=O)O)=C(CSc3cccc[n+]3[O-])CS[C@H]12 shows clearance strictly lower than 4 mL/min/kg.
Not fulfilled

###

test: in vitro; settings: beagle, dog, plasma, pH 7.4
fraction unbound at 4 h, 2 μM listing for selected molecules.
Please give only the number in your answer, with no unit.

The following molecules have reported results that may help.
> print(dat)
                                   molecule              reported.property  value
1  O=C(O)C1=C(CSc2cccc[n+]2[O-])CS[C@@H]2[C@H](NC(=O)/C(=N\Oc3ccccc3)c3ccco3)C(=O)N12  fraction unbound at 4 h, 2 μM  0.186
2  O=C(Cc1ccc(C2=NCCN2)cc1)N[C@@H]1C(=O)N2C(C(=O)O)=C(CSc3nncs3)CS[C@H]12  fraction unbound at 4 h, 2 μM  0.973
3  O=C(Cc1cccs1)N[C@@H]1C(=O)N2C(C(=O)O)=C(CSc3cccc[n+]3[O-])CS[C@H]12  fraction unbound at 4 h, 2 μM  0.529
4  O=C(CCCC(NC(=O)c1ccc(Cl)cc1Cl)C(=O)O)N[C@@H]1C(=O)N2C(C(=O)O)=C(CSc3cccc[n+]3[O-])CS[C@H]12 (some centres unmarked)  fraction unbound at 4 h, 2 μM  0.417

Entry CN(C)C(=S)SCC1=C(C(=O)O)N2C(=O)[C@@H](NC(=O)Cc3cccs3)[C@H]2SC1 , fraction unbound at 4 h, 2 μM reported as 0.084

###

assay: in vivo; conditions: female, CD-1, mouse, iv, 5 mg/kg
Each entry gets no (0) if its AUC(0-t) stays under 20000 ng·h/mL, and yes (1) if its AUC(0-t) is 20000 ng·h/mL or above.

Would you please look over these solved cases?
compound	discrete_label
O=C(Cc1ccc(C2=NCCN2)cc1)N[C@@H]1C(=O)N2C(C(=O)O)=C(CSc3nncs3)CS[C@H]12 [TBBL-0000316]	yes (1)
O=C(Cc1cccs1)N[C@@H]1C(=O)N2C(C(=O)O)=C(CSc3cccc[n+]3[O-])CS[C@H]12 [TBBL-0000001]	no (0)
O=C(O)C1=C(CSc2cccc[n+]2[O-])CS[C@@H]2[C@H](NC(=O)/C(=N\Oc3ccccc3)c3ccco3)C(=O)N12 [TBBL-0000005]	no (0)

Now for a further compound.
// inclusive: AUC(0-t) at least 20000 ng·h/mL? input: O=C(CCCC(NC(=O)c1ccc(Cl)cc1Cl)C(=O)O)N[C@@H]1C(=O)N2C(C(=O)O)=C(CSc3cccc[n+]3[O-])CS[C@H]12 (some centres unmarked) [TBBL-0000552]
no (0)

###

Here the recorded Plasma stability % Remaining, Rat is given for each entry.
assay: In vitro plasma stability, SD rat plasma; conditions: 2 μM, 37 °C, time point 120 min
Numbers only here, please. The scale is %.

A selection of reference data follows.
> print(dat)
                                   molecule  value
1  CNCc1ccccc1CC(=O)N[C@@H]1C(=O)N2C(C(=O)O)=C(CSc3nnnn3C)CS[C@H]12   80.8
2  CCc1nnc(SCC2=C(C(=O)O)N3C(=O)[C@@H](NC(=O)Cc4ccc(C5=NCCN5)cc4)[C@H]3SC2)s1   80.0

Item: CC=CC(=O)OCC1=C(C(=O)O)N2C(=O)[C@@H](NC(=O)C(=NO)c3cccs3)[C@H]2SC1 | Plasma stability % Remaining, Rat: 60.9

Given item CON=C(C(=O)N[C@@H]1C(=O)N2C(C(=O)O)=C(CSc3cccc[n+]3[O-])CS[C@H]12)c1csc(N)n1 , the value recorded as its Plasma stability % Remaining, Rat is 98.2

Kindly note the recorded Plasma stability % Remaining, Rat for Cn1nnnc1SCC1=C(C(=O)O)N2C(=O)[C@@H](NC(=O)Cc3ccc(C4=NCCCN4)cc3)[C@H]2SC1 , which is 79.8

Cn1c(SCC2=C(C(=O)O)N3C(=O)[C@@H](NC(=O)Cc4ccccc4CN)[C@H]3SC2)nnc(O)c1=O yielded Plasma stability % Remaining, Rat of 92.4

Documented Plasma stability % Remaining, Rat of O=C(O)C1=C(CSc2cccc[n+]2[O-])CS[C@@H]2[C@H](NC(=O)C(F)c3ccccc3)C(=O)N12 (stereo partly shown) : 71.0

Provenance of the data: paper PMC8922279
